B1: library; a variant is named by its letters at N, in order (parent)
chain: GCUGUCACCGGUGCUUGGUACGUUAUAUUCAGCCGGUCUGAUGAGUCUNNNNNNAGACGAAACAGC

variants of: B1; test: normalized RNA/DNA level without ligand (relative to sTRSVctl = 100) (log10 (% of sTRSVctl)); HEK293T overexpressing SLC46A1; higher = less ribozyme self-cleavage, higher mRNA level; settings: without (6R,S)-folinic acid; ligand present: no
Entry flag: Y if normalized RNA/DNA level without ligand (log10) reaches 2; N if it does not.

For orientation, consider the following solved cases.
CGUUCC ... Y
UCCGUC ... Y
GCCGGU ... Y

Challenge: Identify whether the reported normalized RNA/DNA level without ligand (log10) of the following variant is 2 or greater: `GUACAG`
Response given: N

Challenge: Identify whether the reported normalized RNA/DNA level without ligand (log10) of the following variant is 2 or greater: `UAUUUG`
Response given: N

Challenge: Identify whether the reported normalized RNA/DNA level without ligand (log10) of the following variant is 2 or greater: `CCUGCC`
Response given: Y

Cited source: the supplement of paper PMC6757056
